Entry source: ChEMBL document CHEMBL4393724

Test system: T47D
assayInfo: Antiproliferative activity against human T47D cells assessed as reduction in cell viability incubated for 72 hrs by WST1 assay
Assay type: functional, cell-based
conditionParameters: t47d
testReadout: IC50

Illustrative cases are given below, each with its answer.
Prompt line: API: value(readout=IC50, system=T47D) for record "C=C(C)[C@@H]1CC[C@]2(COC3=C(Cl)C(=O)c4ccc(C)nc4C3=O)CC[C@]3(C)[C@H](CC[C@@H]4[C@@]5(C)CC[C@H](OC(C)=O)C(C)(C)[C@@H]5CC[C@]43C)[C@@H]12"
Response line: Not Active

Prompt line: API: value(readout=IC50, system=T47D) for record "C#CC(=O)OC[C@]12CC[C@@H](C(=C)C)[C@@H]1[C@H]1CC[C@@H]3[C@@]4(C)CC[C@H](OC5=C(Cl)C(=O)c6ccc(C)nc6C5=O)C(C)(C)[C@@H]4CC[C@@]3(C)[C@]1(C)CC2"
Response line: Not Active

Prompt line: API: value(readout=IC50, system=T47D) for record "C=C(COC1=C(Cl)C(=O)c2ccccc2C1=O)[C@@H]1CC[C@]2(COC(C)=O)CC[C@]3(C)[C@H](CC[C@@H]4[C@@]5(C)CC[C@H](OC(C)=O)C(C)(C)[C@@H]5CC[C@]43C)[C@@H]12"
Response line: Not Active

Prompt line: API: value(readout=IC50, system=T47D) for record "Cc1ccc2c(n1)C(=O)C(Cl)=C(Cl)C2=O"
Response line: Not Active

Prompt line: API: value(readout=IC50, system=T47D) for record "C=C(C)[C@@H]1CC[C@]2(COC3=C(Cl)C(=O)c4cccnc4C3=O)CC[C@]3(C)[C@H](CC[C@@H]4[C@@]5(C)CC[C@H](OC(C)=O)C(C)(C)[C@@H]5CC[C@]43C)[C@@H]12"
Response line: Not Active

Others:
Prompt line: API: value(readout=IC50, system=T47D) for record O=C1C(Cl)=C(Cl)C(=O)c2ccccc21 [Dichlon]
Response line: Not Active

====

Test system: T47D
assayInfo: Antiproliferative activity against human T47D cells assessed as reduction in cell viability incubated for 72 hrs by WST1 assay
Assay type: functional, cell-based
conditionParameters: Homo sapiens, T47D, 72 h; read-out: IC50
Listing of entries alongside the reported IC50.
Express the result in µM but write the number alone.

Illustrative cases are given below, each with its answer.
Prompt line: Reported IC50, molecule "C=C(C)[C@@H]1CC[C@]2(COC(C)=O)CC[C@]3(C)[C@H](CC[C@@H]4[C@@]5(C)CC[C@H](OC6=C(Cl)C(=O)c7ccc(C)nc7C6=O)C(C)(C)[C@@H]5CC[C@]43C)[C@@H]12" : ____
Response line: 11.3

Prompt line: Reported IC50, molecule "C=C(C)[C@@H]1CC[C@]2(COC3=C(Cl)C(=O)c4cccnc4C3=O)CC[C@]3(C)[C@H](CC[C@@H]4[C@@]5(C)CC[C@H](O)C(C)(C)[C@@H]5CC[C@]43C)[C@@H]12" : ____
Response line: 13.2

Prompt line: Reported IC50, molecule "C#CC(=O)OC[C@]12CC[C@@H](C(=C)C)[C@@H]1[C@H]1CC[C@@H]3[C@@]4(C)CC[C@H](OC5=C(Cl)C(=O)c6cccnc6C5=O)C(C)(C)[C@@H]4CC[C@@]3(C)[C@]1(C)CC2" : ____
Response line: 99.4

Prompt line: Reported IC50, molecule "C=C(C)[C@@H]1CC[C@]2(COC3=C(Cl)C(=O)c4ccccc4C3=O)CC[C@]3(C)[C@H](CC[C@@H]4[C@@]5(C)CC[C@H](OC(C)=O)C(C)(C)[C@@H]5CC[C@]43C)[C@@H]12" : ____
Response line: 12.6

Next item in the queue.
Prompt line: Reported IC50, molecule "C=C(C)[C@@H]1CC[C@]2(COC3=C(Cl)C(=O)c4ccc(C)nc4C3=O)CC[C@]3(C)[C@H](CC[C@@H]4[C@@]5(C)CC[C@H](O)C(C)(C)[C@@H]5CC[C@]43C)[C@@H]12" : ____
Response line: 90.4
